B1: HDV Ribozyme (parent)
chain: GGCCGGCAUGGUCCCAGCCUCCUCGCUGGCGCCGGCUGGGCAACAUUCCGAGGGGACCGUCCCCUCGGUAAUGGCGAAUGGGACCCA

Variants of: B1
Assay: self-cleavage, relative activity (ratio to wild type); higher = more cleavage; co-transcriptional
Is self-cleavage at least 0.3? Then YES. If not, NO.

Reference set (3 entries):
mutationSpec	categoryLabel
G11C U23A	YES
C19G A45U	NO
U9C A87C	YES

Exam item: decide whether the reported self-cleavage for G54A C75U is at least 0.3.
NO

Cool, now U65A C86A
YES

Cool, now A51U A78C
NO

Cool, now A70U G82C
YES

Cool, now C26G A56U
YES

Data credit: the RNAGym collection of RNA variant scans (doi:10.7554/elife.80360)
